Ki, 5-hydroxytryptamine receptor 7 (Homo sapiens, UniProt P34969), per-entry values.
// units = nM; emit number, no label

[
  {
    "smiles.text": "COc1ccc(-c2ccccc2N2CCN(CCCCCC(=O)NCc3ccc(C#N)cc3)CC2)cc1",
    "endpoint.name": "Ki",
    "unit.of.measurement": "nM",
    "assay.value": 8
  },
  {
    "smiles.text": "C[C@@H]1CN(c2ccccc2-c2ccccc2)CCN1CCCCCC(=O)NCc1ccccc1",
    "endpoint.name": "Ki",
    "unit.of.measurement": "nM",
    "assay.value": 14
  },
  {
    "smiles.text": "COc1ccc(-c2ccccc2N2CCN(CCCCCC(=O)NCc3ccc(OCCN4CCOCC4)cc3)CC2)cc1",
    "endpoint.name": "Ki",
    "unit.of.measurement": "nM",
    "assay.value": 25
  },
  {
    "smiles.text": "COc1ccc(-c2ccccc2N2CCN(CCCCCC(=O)NCc3ccc(OCCCN4CCOCC4)cc3)CC2)cc1",
    "endpoint.name": "Ki",
    "unit.of.measurement": "nM",
    "assay.value": 18.5
  }
]

Measured Ki (5-hydroxytryptamine receptor 7 (Homo sapiens, UniProt P34969)), entry COc1ccc(-c2ccccc2N2CCN(CCCCCC(=O)NCc3ccc(OCCO)cc3)CC2)cc1 : 14.5

Attribution: ChEMBL document CHEMBL3856221
